Measured values drawn from PubChem BioAssay (NCI) for this set.

# Tested on: IGROV1 ovarian
# PROCEDURE DETAILS: NCI-60 one-dose screen, 48 h (100 = growth as untreated, 0 = no growth, -100 = all killed)
# RUN PARAMETERS: 10 µM unless noted
Compounds without any hit were thinned out: in the full panel of roughly 83,000, 20% have a hit.
OUTCOME MEASURE: growth (%)
Answer format: numeric, % implied, no suffix.

COc1cc2c(cc1O)c(=O)n(CCN(C)C)c1c3cc4c(cc3ncc21)OCO4 = 0.0353
CC(=Nc1ccccc1)C1=C(O)C(Cc2ccc(O)cc2)NC1=O (centres undefined) = 17.8
Clc1ccc2c(NCCCNCc3ccc4c(c3)OCO4)ccnc2c1 = 57.3
O=C1CCC(=O)CC1 = 96.3
C/C(=N\NC(=O)Cn1c(-c2ccc(S(C)(=O)=O)cc2)nc2ccccc21)c1ccc(Cl)cc1 = 92.6

**Q:** Field: growth (IGROV1 ovarian). Entry: `Oc1ccc(C(c2ccc(O)cc2)C(Cl)(Cl)Cl)cc1`
**A:** 93

**Q:** Could you do the same for `CC(C)(C)CC(C)(C)Nc1c(-c2c(O)c3ccccc3oc2=O)nc2c(Cl)cc(C(F)(F)F)cn12` , please?
**A:** 90.4

**Q:** Could you do the same for `Cc1cn(-c2cc(NC(=O)c3ccc(C)c(Nc4nccc(-c5cnccn5)n4)c3)cc(C(F)(F)F)c2)cn1` , please?
**A:** 85.1

**Q:** Could you do the same for O=C1CC(c2cccc(F)c2)c2c(n[nH]c2-c2ccc(Cl)cc2)N1 (centres undefined) , please?
**A:** 101
